molecular target: T1, hOrai1-mOrai1 ECL2 (…) protein (human/mouse chimera, UniProt Q96D31 1-301); assay: FACS, 293EBNA; parameters: concentration or dose not given beside the values
T1 construct: also called Ch
T1 sequence (Q96D31 other isoform, or with tags, fused parts or gaps): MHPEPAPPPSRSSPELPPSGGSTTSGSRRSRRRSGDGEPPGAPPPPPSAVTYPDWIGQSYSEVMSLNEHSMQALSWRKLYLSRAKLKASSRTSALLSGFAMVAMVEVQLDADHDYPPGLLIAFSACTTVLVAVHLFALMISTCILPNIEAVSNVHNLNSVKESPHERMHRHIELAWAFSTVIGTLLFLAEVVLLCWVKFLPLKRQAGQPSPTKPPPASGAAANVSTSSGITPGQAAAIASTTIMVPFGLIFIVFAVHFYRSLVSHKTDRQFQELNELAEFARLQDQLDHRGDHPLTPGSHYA
parameter: percent of control (POC) of FACS Geo Mean

Worked cases, percent of control (POC) of FACS Geo Mean given:
| binder | result |
| --- | --- |
| mAb 5F2.1 (antibody, human IgG2, lambda, V domains shown, fully human IgG2 lambda, Campaign 2) VH: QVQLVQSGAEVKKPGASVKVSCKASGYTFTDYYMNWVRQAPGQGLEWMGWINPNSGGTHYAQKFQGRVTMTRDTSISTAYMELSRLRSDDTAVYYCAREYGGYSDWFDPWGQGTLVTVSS VL: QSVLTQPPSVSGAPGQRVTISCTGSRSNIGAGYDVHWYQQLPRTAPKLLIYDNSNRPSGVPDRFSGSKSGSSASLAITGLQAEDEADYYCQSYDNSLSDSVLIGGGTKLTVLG | < 1% |
| mAb 5A4.2 (antibody, human IgG2, lambda, V domains shown, fully human IgG2 lambda, Campaign 2) VH: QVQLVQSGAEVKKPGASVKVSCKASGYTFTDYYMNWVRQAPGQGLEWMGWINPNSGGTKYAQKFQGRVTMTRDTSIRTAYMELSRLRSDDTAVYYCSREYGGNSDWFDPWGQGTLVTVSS VL: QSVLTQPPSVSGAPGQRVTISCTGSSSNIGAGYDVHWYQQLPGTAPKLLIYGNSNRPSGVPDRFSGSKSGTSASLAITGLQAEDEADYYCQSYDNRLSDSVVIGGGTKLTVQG | < 1% |

## Task Given the entry mAb 2D2.1 (antibody, human IgG2, lambda, V domains shown, fully human IgG2 lambda, Campaign 1; also called mAb 2D.1) VH: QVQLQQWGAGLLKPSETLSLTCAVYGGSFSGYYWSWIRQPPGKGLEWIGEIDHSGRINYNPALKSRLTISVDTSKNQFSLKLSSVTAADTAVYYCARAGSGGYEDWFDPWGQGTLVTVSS VL: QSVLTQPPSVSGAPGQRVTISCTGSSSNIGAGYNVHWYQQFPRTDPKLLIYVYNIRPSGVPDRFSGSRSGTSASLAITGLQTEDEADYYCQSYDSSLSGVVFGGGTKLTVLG , report its measured percent of control (POC) of FACS Geo Mean.
## Result < 1%
